Hey, just so you know, these numbers are from ChEMBL document CHEMBL1122166.

target: Adrenergic receptor beta (Homo sapiens) (UniProt P08588+P07550+P13945); assay: In vivo beta adrenergic receptor blocking potency was determined by inhibition of depressor response produced by isoproterenol (0.2 mg/kg iv) in cat preparation; type: functional, organism-based; details: Felis catus; in the assay text read “0.2 µg/kg iv” for “0.2 mg/kg iv”; target entry is the homologue from another species
MEASURED PROPERTY: inhibition (%)

The following molecules have reported results that may help.
Please report inhibition for the following molecule: CCCCNC(=O)NCCNCC(O)COc1ccccc1 (stereo not drawn)
8

Please report the measured inhibition for Cc1c(N)cc(S(=O)(=O)NCCNCC(O)COc2ccccc2)cc1[N+](=O)[O-] (stereo not drawn)
34

Read off the recorded inhibition for O=C(NCCNCC(O)COc1ccccc1)c1cc(O)ccc1O (stereo not drawn)
0

For the molecule CCCCNC(=O)NCCNCC(O)COc1ccccc1C#N (stereo not drawn) , give its measured inhibition value.
0

State its inhibition: CCCCCC(=O)NCC(C)NCC(O)COc1ccccc1 (stereo not drawn)
0

// fetch inhibition given entry CNC(=O)NCCNCC(O)COc1ccccc1C#N (stereo not drawn)
18

1 = O=C(NCCNCC(O)COc1ccccc1)C1CCCCC1 (stereo not drawn)
2 = CC(CNC(=O)Cc1ccccc1)NCC(O)COc1ccccc1C#N (stereo not drawn)
3 = CC(=O)NCCNCC(O)COc1ccccc1 (stereo not drawn)
4 = O=C(NCCNCC(O)COc1ccccc1Cl)Nc1ccccc1 (stereo not drawn)
Arrange the 4 entries by inhibition so the values rise. Form field (ranking): labels in requested order.
1, 4, 3, 2
(1: 0%, 4: 4%, 3: 7%, 2: 10%)

a = CS(=O)(=O)NCCNCC(O)COc1ccccc1 (stereo not drawn)
b = N#Cc1ccccc1OCC(O)CNCCNC(=O)Nc1ccccc1[N+](=O)[O-] (stereo not drawn)
c = CC(CNC(=O)Cc1ccccc1Cl)NCC(O)COc1ccccc1[N+](=O)[O-] (stereo not drawn)
d = C=CCNC(=O)NCCNCC(O)COc1ccccc1 (stereo not drawn)
Hey, quick one: sort these by inhibition, largest value first please. Answer by naming the labels in the order asked.
c, b, d, a
(c: 34%, b: 11%, d: 5%, a: 0%)

A = CN(C)c1ccccc1C(=O)NCCNCC(O)COc1ccccc1 (stereo not drawn)
B = O=C(NCCNCC(O)COc1ccccc1[N+](=O)[O-])Nc1ccccc1 (stereo not drawn)
C = CC(C)(OC(=O)NCCNCC(O)COc1ccccc1)c1ccc(Cl)cc1 (stereo not drawn)
Highest inhibition first, then in falling order down to the smallest. List the labels, following the order given in the request.
C, B, A
(C: 25%, B: 14%, A: 0%)
